assay: Pharmacokinetics study of KDG-0388 in male CD1 mice (Example 2); format: in vivo; settings: mouse; male CD1 mice, plasma, 200 mg/kg IP, 0.5 h; read-out: Concentration IP_Mean
measurement-name: concentration at 0.5 h

// lookup concentration at 0.5 h for Cc1n[nH]c2c1C(c1cc(C#C[C@H]3C[C@@H](NC(=O)OC(C)(C)C)C3)cc(CO)c1)(C(C)C)C(C#N)=C(N)O2 (stereo partly shown) 6170 ng/mL

====

assay: Pharmacokinetics study of KDG-0271 in male CD1 mice (Example 3); assay type: in vivo; settings: mouse; male CD1 mice, plasma, 200 mg/kg PO, 8 h; read-out: Concentration PO_Mean
measurement-name: concentration at 8 h (ng/mL)
Answers are plain numbers, in ng/mL.

Look up concentration at 8 h: Cc1n[nH]c2c1C(c1cc(C#CC3CN(C(=O)OC(C)(C)C)C3)cc(CO)c1)(C(C)C)C(C#N)=C(N)O2 (stereo not shown) 28.6

====

experiment: Pharmacokinetics study of KDG-0271 in male CD1 mice (Example 3); assay type: in vivo; conditions: male, mouse, plasma; CD1 mice, 1 mg/kg IV
measurement-name: C0 (ng/mL)
One number for each entry, in ng/mL.

Could you tell me which C0 is on file for Cc1n[nH]c2c1C(c1cc(C#CC3CN(C(=O)OC(C)(C)C)C3)cc(CO)c1)(C(C)C)C(C#N)=C(N)O2 (stereo not shown) [KDG-0271] ? 637

====

test: Pharmacokinetics study of KDG-0320-0A in male CD1 mice (Example 1); type: in vivo; details: mouse, plasma, 50 mg/kg PO, 8 h, read-out: Concentration PO_Mean
Structures can show the parent of a compound that is named as a salt.
measurement-name: concentration at 8 h
Returns: string containing the number followed by the unit.

Which measured concentration at 8 h value corresponds to Cc1n[nH]c2c1C(c1cc(C#C[C@H]3CC[C@H](NC(=O)OC(C)(C)C)CC3)cc(CO)c1)(C(C)C)C(C#N)=C(N)O2 (stereo partly shown) [KDG-0320, hydrochloride] ? 15.8 ng/mL

====

assay: Pharmacokinetics study of KDG-0388 in male CD1 mice (Example 2); assay type: in vivo; conditions: male, mouse; CD1 mice, plasma, 1 mg/kg IV, 4 h; read-out: Concentration IV_Mean
measurement-name: concentration at 4 h
Answer with the value and then the unit.

Any idea what concentration at 4 h was measured for Cc1n[nH]c2c1C(c1cc(C#C[C@H]3C[C@@H](NC(=O)OC(C)(C)C)C3)cc(CO)c1)(C(C)C)C(C#N)=C(N)O2 (stereo partly shown) [KDG-0388] ? 1.71 ng/mL

====

assay: Pharmacokinetics study of KDG-0271 in male CD1 mice (Example 3); type: in vivo; settings: mouse, plasma; male CD1 mice, 200 mg/kg IP
measurement-name: AUC(0-inf) (ng·h/mL)
Answers are plain numbers, in ng·h/mL.

What value of AUC(0-inf) has been recorded for this entry: Cc1n[nH]c2c1C(c1cc(C#CC3CN(C(=O)OC(C)(C)C)C3)cc(CO)c1)(C(C)C)C(C#N)=C(N)O2 (stereo not shown) [KDG-0271] 14500

====

assay: Mouse liver microsome assay (metabolic stability); type: in vitro ADME; settings: mouse liver microsomes, in vitro intrinsic clearance; read-out: Relative Clint
measurement-name: microsomal CLint at 2 µM

Answer for every listed entry: what is its microsomal CLint at 2 µM? The entries follow.
1. Cc1nnc(N2CCC(C#Cc3cc(CO)cc(C4(C(C)C)C(C#N)=C(N)Oc5[nH]nc(C)c54)c3)CC2)o1 (stereo not shown)
2. Cc1n[nH]c2c1C(c1cc(C#CC3(F)CCN(C(=O)OC(C)(C)C)CC3)cc(CO)c1)(C(C)C)C(C#N)=C(N)O2 (stereo not shown)
3. COC(=O)N1CC(F)(C#Cc2cc(CO)cc([C@@]3(C(C)C)C(C#N)=C(N)Oc4[nH]nc(C)c43)c2)C1
4. Cc1nnc(N2CC(C#Cc3cc(CO)cc(C4(C(C)C)C(C#N)=C(N)Oc5[nH]nc(C)c54)c3)C2)o1 (stereo not shown)

1: 70 to 100 µL/min/mg; 2: 100 to 250 µL/min/mg; 3: ≤ 70 µL/min/mg; 4: ≤ 70 µL/min/mg

The reported numbers originate from patent US20230382920A1.
